Molecular target: Serine/threonine-protein kinase N2 (Homo sapiens) (UniProt Q16513)
Sequence (Q16513 whole entry, looked up): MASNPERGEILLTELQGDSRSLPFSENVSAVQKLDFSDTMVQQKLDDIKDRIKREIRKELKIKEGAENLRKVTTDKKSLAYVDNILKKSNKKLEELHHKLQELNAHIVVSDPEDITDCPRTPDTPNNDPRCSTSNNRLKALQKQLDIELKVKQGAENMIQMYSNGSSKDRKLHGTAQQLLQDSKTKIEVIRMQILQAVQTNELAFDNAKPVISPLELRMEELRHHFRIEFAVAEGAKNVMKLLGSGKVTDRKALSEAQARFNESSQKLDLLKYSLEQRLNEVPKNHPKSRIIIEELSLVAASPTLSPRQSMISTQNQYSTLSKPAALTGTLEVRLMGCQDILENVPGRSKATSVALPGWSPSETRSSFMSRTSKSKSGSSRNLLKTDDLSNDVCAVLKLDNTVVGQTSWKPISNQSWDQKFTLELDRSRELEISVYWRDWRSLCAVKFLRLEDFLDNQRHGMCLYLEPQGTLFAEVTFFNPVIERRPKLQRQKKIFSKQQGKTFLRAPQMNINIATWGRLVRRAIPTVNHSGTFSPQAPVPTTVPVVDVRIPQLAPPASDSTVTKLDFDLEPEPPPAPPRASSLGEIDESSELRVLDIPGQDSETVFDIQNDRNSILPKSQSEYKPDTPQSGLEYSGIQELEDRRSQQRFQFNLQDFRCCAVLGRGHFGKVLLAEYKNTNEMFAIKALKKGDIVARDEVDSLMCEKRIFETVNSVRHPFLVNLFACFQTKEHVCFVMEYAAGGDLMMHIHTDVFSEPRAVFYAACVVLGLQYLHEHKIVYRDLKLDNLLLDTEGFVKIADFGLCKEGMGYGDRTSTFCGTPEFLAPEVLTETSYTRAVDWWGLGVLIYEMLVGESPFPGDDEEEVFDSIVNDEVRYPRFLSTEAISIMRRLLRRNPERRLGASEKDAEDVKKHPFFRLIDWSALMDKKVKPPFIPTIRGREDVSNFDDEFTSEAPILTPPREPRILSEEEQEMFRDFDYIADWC
Conditions: at 10 µM
Would you mind telling me the reported residual activity of each entry?
Answers are plain numbers, in %.

Consider the following illustrative entries.
CO[C@@H]1[C@H](N(C)C(=O)c2ccccc2)C[C@H]2O[C@]1(C)n1c3ccccc3c3c4c(c5c6ccccc6n2c5c31)C(=O)NC4; 1
COc1ccc(CNc2nc(N(CCO)CCO)nc3c2ncn3C(C)C)cc1; 77
CC(C)n1cnc2c(NCc3ccccc3)nc(NCCCO)nc21; 99
CO[C@H]1C[C@@H]2CC[C@@H](C)[C@@](O)(O2)C(=O)C(=O)N2CCCC[C@H]2C(=O)O[C@H]([C@H](C)C[C@@H]2CC[C@@H](O)[C@H](OC)C2)CC(=O)[C@H](C)/C=C(\C)[C@@H](O)[C@@H](OC)C(=O)[C@H](C)C[C@H](C)/C=C/C=C/C=C/1C; 116
N#CCCc1ccc2c(c1)-c1[nH]c3ccc([N+](=O)[O-])cc3c1CC(=O)N2; 28
C[C@@H](N)[C@H]1CC[C@H](C(=O)Nc2ccncc2)CC1; 4
CCOc1cc2ncnc(Nc3cccc(Br)c3)c2cc1OCC; 79
Cn1cc(/C=C2\C(=O)Nc3ccc(S(N)(=O)=O)cc32)c2ccccc21; 23

Next compound, residual activity to be filled in.
Given c1ccc(-c2n[nH]cc2-c2ccnc3ccccc23)nc1 , state its recorded residual activity.
103

----------
Target: Mitogen-activated protein kinase 11 (Homo sapiens)
Conditions: at 1 µM
observation_type: residual activity (%)
Numbers only, in %.

NC(=O)c1ccc2[nH]c(-c3ccc(Oc4ccc(Cl)cc4)cc3)nc2c1; 99
O=c1cc(-c2cccc3c2Sc2ccccc2S3)oc(N2CCOCC2)c1; 111
COc1cc2ncnc(Nc3ccc(NC(=O)c4ccccc4)cc3)c2cc1OC; 103
Oc1n[nH]c2nnc(-c3c(-c4ccccc4)nn4ccccc34)cc12; 94

Answer for every listed entry: what is its residual activity? The entries follow.
1. Oc1ccc(-c2nc(-c3ccc(F)cc3)c(-c3ccncc3)[nH]2)cc1
2. COc1ccc(CNc2nc(N(CCO)CCO)nc3c2ncn3C(C)C)cc1
3. CC(=O)c1ccc(N2CCOCC2)cc1O
4. O=C1NC(=O)/C(=C\c2ccc3nccnc3c2)S1
5. C[C@@H](N)[C@H]1CC[C@H](C(=O)Nc2ccncc2)CC1
6. COc1cccc(-c2cc(=O)c3ccccc3o2)c1N
7. Cn1cc(/C=C2\C(=O)Nc3ccc(S(N)(=O)=O)cc32)c2ccccc21

1. 2
2. 100
3. 106
4. 95
5. 114
6. 101
7. 98

----------
Target: Serine/threonine-protein kinase pim-1 (Homo sapiens)
Details: at 10 µM
observation_type: residual activity (%)
Numbers only, in %.

Answer for every listed entry: what is its residual activity? The entries follow.
1. CCC(=O)Nc1ccc2ncnc(Nc3cccc(Br)c3)c2c1
2. O=C1NC(=O)c2cc(Nc3ccc(F)cc3)c(Nc3ccc(F)cc3)cc21
3. COc1ccc(S(=O)(=O)N(CCO)c2ccccc2CN(C)C/C=C/c2ccc(Cl)cc2)cc1
4. Cc1cncc2cccc(S(=O)(=O)N3CCCN(C(=O)CN)C[C@H]3C)c12
5. COc1ccc(OC)c2c(=S)c3ccccc3[nH]c12

1: 86; 2: 11; 3: 73; 4: 84; 5: 52

Given COc1cccc(-c2cc(=O)c3ccccc3o2)c1N , state its recorded residual activity.
58
